experiment: clinical; details: both, human, in vivo, oral, 1240 mg
measured.quantity: AUC

Lookup: Provide measured AUC value, entry: CN(C)C(=N)N=C(N)N [Metformin, metformin]
Found: 76100 to 92500 ng·h/mL

----------
test: clinical; conditions: both, human, in vivo, oral, 1240 mg, tmax, median [minimum-maximum], 1240 mg single administration without food
measured.quantity: Tmax (h)
Report only the number, with the unit h understood.

Lookup: Provide measured Tmax value, entry: CN(C)C(=N)NC(=N)N [Metformin glycinate]
Found: 1.5

Origin of the recorded values: patent US11185516B2
